Target: T1, c-erbB-2 ECD with a Ser-Gly-His6 C-terminal fusion (UniProt P04626 23-652)
T1 construct: extracellular domain; Expressed from CHO cells, IMAC purified; coupled to a CM5 chip, coated on plates, or biotinylated with NHS-LC-biotin; also called c-erbB-2 extracellular domain; biotinylated c-erbB-2 ECD
Test: SPR BIAcore
Below, each entry is listed with its recorded koff.
Hi! Could you send only the number? It should be in s⁻¹, unit omitted.

Sample records with koff:
>  <binder>
C6ML3-26 (scFv) scFv: QVQLLQSGAELKKPGESLKISCKGSGYSFTSYWIAWVRQMPGKGLEYMGLIYPGDSDTKYSPSFQGQVTISVDKSVSTAYLQWSSLKPSDSAVYFCARHDVGYCSSSNCAKWPEYFQHWGQGTLVTVSSGGGGSGGGGSGGGGSQSVLTQPPSVSAAPGQKVTISCSGSSSNIGNNYVSWYQQLPGTAPKLLIYGHTNRPAGVPDRFSGSKSGTSASLAISGFRSEDEADYYCAAWDDSRSGWVFGGGTKLTVLG

>  <units-of-measure>
s⁻¹

>  <endpoint-value>
0.005

$$$$
>  <binder>
C6ML3-16 (scFv) scFv: QVQLLQSGAELKKPGESLKISCKGSGYSFTSYWIAWVRQMPGKGLEYMGLIYPGDSDTKYSPSFQGQVTISVDKSVSTAYLQWSSLKPSDSAVYFCARHDVGYCSSSNCAKWPEYFQHWGQGTLVTVSSGGGGSGGGGSGGGGSQSVLTQPPSVSAAPGQKVTISCSGSSSNIGNNYVSWYQQLPGTAPKLLIYGHTNRPAGVPDRFSGSKSGTSASLAISGFRSEDEADYYCASWDYYRSGWVFGGGTKLTVLG

>  <units-of-measure>
s⁻¹

>  <endpoint-value>
0.0017

$$$$
>  <binder>
C6ML3-18 (scFv) scFv: QVQLLQSGAELKKPGESLKISCKGSGYSFTSYWIAWVRQMPGKGLEYMGLIYPGDSDTKYSPSFQGQVTISVDKSVSTAYLQWSSLKPSDSAVYFCARHDVGYCSSSNCAKWPEYFQHWGQGTLVTVSSGGGGSGGGGSGGGGSQSVLTQPPSVSAAPGQKVTISCSGSSSNIGNNYVSWYQQLPGTAPKLLIYGHTNRPAGVPDRFSGSKSGTSASLAISGFRSEDEADYYCASWDASLWGWVFGGGTKLTVLG

>  <units-of-measure>
s⁻¹

>  <endpoint-value>
0.00062

$$$$
>  <binder>
C6ML3-25 (scFv) scFv: QVQLLQSGAELKKPGESLKISCKGSGYSFTSYWIAWVRQMPGKGLEYMGLIYPGDSDTKYSPSFQGQVTISVDKSVSTAYLQWSSLKPSDSAVYFCARHDVGYCSSSNCAKWPEYFQHWGQGTLVTVSSGGGGSGGGGSGGGGSQSVLTQPPSVSAAPGQKVTISCSGSSSNIGNNYVSWYQQLPGTAPKLLIYGHTNRPAGVPDRFSGSKSGTSASLAISGFRSEDEADYYCAAWDNRHSGWVFGGGTKLTVLG

>  <units-of-measure>
s⁻¹

>  <endpoint-value>
0.0044

$$$$

Looking for the measured koff of C6ML3-24 (scFv) scFv: QVQLLQSGAELKKPGESLKISCKGSGYSFTSYWIAWVRQMPGKGLEYMGLIYPGDSDTKYSPSFQGQVTISVDKSVSTAYLQWSSLKPSDSAVYFCARHDVGYCSSSNCAKWPEYFQHWGQGTLVTVSSGGGGSGGGGSGGGGSQSVLTQPPSVSAAPGQKVTISCSGSSSNIGNNYVSWYQQLPGTAPKLLIYGHTNRPAGVPDRFSGSKSGTSASLAISGFRSEDEADYYCAAWDEQIFGWVFGGGTKLTVLG , can you help?
0.0079

Another binder to check: C6ML3-17 (scFv) scFv: QVQLLQSGAELKKPGESLKISCKGSGYSFTSYWIAWVRQMPGKGLEYMGLIYPGDSDTKYSPSFQGQVTISVDKSVSTAYLQWSSLKPSDSAVYFCARHDVGYCSSSNCAKWPEYFQHWGQGTLVTVSSGGGGSGGGGSGGGGSQSVLTQPPSVSAAPGQKVTISCSGSSSNIGNNYVSWYQQLPGTAPKLLIYGHTNRPAGVPDRFSGSKSGTSASLAISGFRSEDEADYYCASWDYYRSGWVFGGGTKLTVLG
0.0017

Another binder to check: C6ML3-29 (scFv) scFv: QVQLLQSGAELKKPGESLKISCKGSGYSFTSYWIAWVRQMPGKGLEYMGLIYPGDSDTKYSPSFQGQVTISVDKSVSTAYLQWSSLKPSDSAVYFCARHDVGYCSSSNCAKWPEYFQHWGQGTLVTVSSGGGGSGGGGSGGGGSQSVLTQPPSVSAAPGQKVTISCSGSSSNIGNNYVSWYQQLPGTAPKLLIYGHTNRPAGVPDRFSGSKSGTSASLAISGFRSEDEADYYCAAWDGTLWGWVFGGGTKLTVLG
0.0022

Another binder to check: C6ML3-12 (scFv, also called CML-3-12) scFv: QVQLLQSGAELKKPGESLKISCKGSGYSFTSYWIAWVRQMPGKGLEYMGLIYPGDSDTKYSPSFQGQVTISVDKSVSTAYLQWSSLKPSDSAVYFCARHDVGYCSSSNCAKWPEYFQHWGQGTLVTVSSGGGGSGGGGSGGGGSQSVLTQPPSVSAAPGQKVTISCSGSSSNIGNNYVSWYQQLPGTAPKLLIYGHTNRPAGVPDRFSGSKSGTSASLAISGFRSEDEADYYCAAWDYSRSGWVFGGGTKLTVLG
0.00072

Another binder to check: C6ML3-9 (scFv, template (wt) of the VH CDR3 libraries; also called C6ML3-9 (wt); C6ML-9) scFv: QVQLLQSGAELKKPGESLKISCKGSGYSFTSYWIAWVRQMPGKGLEYMGLIYPGDSDTKYSPSFQGQVTISVDKSVSTAYLQWSSLKPSDSAVYFCARHDVGYCSSSNCAKWPEYFQHWGQGTLVTVSSGGGGSGGGGSGGGGSQSVLTQPPSVSAAPGQKVTISCSGSSSNIGNNYVSWYQQLPGTAPKLLIYGHTNRPAGVPDRFSGSKSGTSASLAISGFRSEDEADYYCASWDYTLSGWVFGGGTKLTVLG
0.00019

Where these numbers come from: patent US6512097
